- MEASURED_TARGET: Genome polyprotein (Hepatitis C virus genotype 1a (isolate H77))
- Sequence (P27958 1027-1657 limits assumed): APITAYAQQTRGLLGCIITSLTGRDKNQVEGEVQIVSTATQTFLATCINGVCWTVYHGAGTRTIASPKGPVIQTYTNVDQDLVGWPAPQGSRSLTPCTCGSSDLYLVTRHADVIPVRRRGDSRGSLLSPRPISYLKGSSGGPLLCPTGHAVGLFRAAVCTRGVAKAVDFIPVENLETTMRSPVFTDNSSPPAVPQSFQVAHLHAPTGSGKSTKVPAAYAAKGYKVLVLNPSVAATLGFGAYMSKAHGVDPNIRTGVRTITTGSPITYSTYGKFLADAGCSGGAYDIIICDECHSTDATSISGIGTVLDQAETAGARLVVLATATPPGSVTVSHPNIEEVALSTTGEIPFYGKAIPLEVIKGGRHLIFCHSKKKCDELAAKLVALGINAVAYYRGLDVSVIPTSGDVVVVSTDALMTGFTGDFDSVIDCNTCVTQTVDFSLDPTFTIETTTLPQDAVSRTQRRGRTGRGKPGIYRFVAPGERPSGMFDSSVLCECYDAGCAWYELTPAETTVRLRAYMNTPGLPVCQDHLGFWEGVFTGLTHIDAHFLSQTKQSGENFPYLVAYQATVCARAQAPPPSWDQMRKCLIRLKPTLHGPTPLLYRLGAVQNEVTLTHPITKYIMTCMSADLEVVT
- ASSAY_OVERVIEW: Continuous Spectrophotometric Assay
- REPORTED_CONDITIONS: pH 6.5; 30 °C
MEASUREMENT_LABEL: Ki (nM)
Report as a plain number; the unit nM is understood.

Ki for CC(C)(C)OC(=O)[C@@H](NC(=O)N[C@H]1CCCCCCCCCC[C@@H](C(=O)C(N)=O)NC(=O)[C@@H]2[C@@H]3[C@H](CN2C1=O)C3(C)C)C(C)(C)C ? 37

Ki for CC(C)(C)OC(=O)N[C@H]1CCCCCCCCCC[C@@H](C(=O)C(N)=O)NC(=O)[C@@H]2[C@@H]3[C@H](CN2C1=O)C3(C)C ? 59

Ki for CC(C)(C)OC(=O)N[C@H]1CCCCCCCC[C@@H](C(=O)C(N)=O)NC(=O)[C@@H]2[C@@H]3[C@H](CN2C1=O)C3(C)C ? 36

Ki for CCCNC(=O)C(=O)[C@@H]1CCCCCCCCC[C@H](NC(=O)N[C@H](CN(C)S(=O)(=O)c2cccs2)C(C)(C)C)C(=O)N2C[C@H]3[C@@H]([C@H]2C(=O)N1)C3(C)C ? 14

Ki for CCNC(=O)C(=O)[C@@H]1CCCCCCCCC[C@H](NC(=O)N[C@H](CN(C)S(=O)(=O)c2cccs2)C(C)(C)C)C(=O)N2C[C@H]3[C@@H]([C@H]2C(=O)N1)C3(C)C ? 10

Ki for CC1(NC(=O)N[C@H]2CCCCCCCCCC[C@@H](C(=O)C(N)=O)NC(=O)[C@@H]3[C@@H]4[C@H](CN3C2=O)C4(C)C)CCCCC1 ? 36

Ki for CC(C)(C)OC(=O)N[C@H]1CCCCCCCCC[C@@H](C(=O)C(N)=O)NC(=O)[C@@H]2[C@@H]3[C@H](CN2C1=O)C3(C)C ? 30

Ki for CC(C)(C)NC(=O)N[C@H]1CCCCCCCCCC[C@@H](C(=O)C(N)=O)NC(=O)[C@@H]2[C@@H]3[C@H](CN2C1=O)C3(C)C ? 59
